Quick record of pIC50 values for TEAD1 protein (YAP Binding Domain) (Homo sapiens).
pIC50: −log10 of the molar value.

The cases that follow already have their pIC50 on record.
[[record]]
compound = "C=C(F)C(=O)Nc1ccc2c(c1)OC(c1cccc(C(F)(F)F)c1)O2 (stereo not shown) [Compound 148]"
experimental_system = "TEAD1 protein (YAP Binding Domain) (Homo sapiens)"
assay_result = "5.70 to 6.30"

[[record]]
compound = "C=CC(=O)Nc1ccc(OCc2ccsc2Cl)c(F)c1 [Compound 61]"
experimental_system = "TEAD1 protein (YAP Binding Domain) (Homo sapiens)"
assay_result = "5.70 to 6.30"

[[record]]
compound = "C=CC(=O)Nc1ccc(OCc2cccc(F)c2)c(OC)c1 [Compound 6]"
experimental_system = "TEAD1 protein (YAP Binding Domain) (Homo sapiens)"
assay_result = "6.30 to 6.60"


Exercise: Could you share which pIC50 value was measured for C=CC(=O)Nc1ccc(OCc2cccc(CC)c2)c(F)c1 [Compound 26] ?
Key: ≥ 6.60

Exercise: Next entry: C=CC(=O)Nc1cc2nc(C3CCC(F)(F)CC3)oc2cc1F [Compound 135]
Key: 5.70 to 6.30

Exercise: Entry C=CC(=O)Nc1ccc(OCc2cccnc2C)c(F)c1 [Compound 75] please
Key: < 5.70

Exercise: Also C=CS(=O)(=O)Nc1ccc(OCC2CCC(F)(F)CC2)c(F)c1 [Compound 34] , if possible.
Key: ≥ 6.60

====

molecular target: TEAD1 protein (YAP Binding Domain) (Homo sapiens, UniProt P28347)
Sequence (P28347 209-426 limits assumed): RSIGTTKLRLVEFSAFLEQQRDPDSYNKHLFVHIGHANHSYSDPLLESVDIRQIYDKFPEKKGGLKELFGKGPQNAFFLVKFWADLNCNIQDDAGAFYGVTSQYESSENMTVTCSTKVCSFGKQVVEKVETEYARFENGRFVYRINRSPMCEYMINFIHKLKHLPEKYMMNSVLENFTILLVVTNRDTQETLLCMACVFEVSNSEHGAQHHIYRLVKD
pIC50: −log10 of the molar value.
Measured pIC50 values are reported for all entries that follow.

Recorded pIC50, per entry:
[[record]]
compound = "C=CC(=O)Nc1ccc(OCc2cccnc2Br)c(F)c1 [Compound 74]"
assay_result = "< 5.70"

[[record]]
compound = "C=CC(=O)Nc1ccc(OCC2CCC(F)(F)CC2)c(C)c1 [Compound 48]"
assay_result = "≥ 6.60"

[[record]]
compound = "C=CC(=O)Nc1ccc(OCc2cccc(Cl)c2F)c(F)c1 [Compound 99]"
assay_result = "≥ 6.60"

[[record]]
compound = "C=CC(=O)Nc1ccc(OCc2ccnc(C(F)(F)F)c2)c(F)c1 [Compound 116]"
assay_result = "6.30 to 6.60"

[[record]]
compound = "C=CC(=O)Nc1ccc(OCC2CCOCC2)c(F)c1 [Compound 54]"
assay_result = "< 5.70"

[[record]]
compound = "C=CC(=O)Nc1ccc(OCc2cccc(F)c2)c(F)n1 [Compound 127]"
assay_result = "≥ 6.60"


Exercise: # input compound: C=CC(=O)Nc1cc2nc(Cc3ccccc3)oc2cc1F [Compound 137] ; wanted: its pIC50
Key: 6.30 to 6.60

Exercise: Param item: C=CC(=O)Nc1ccc(OCc2cccc(C)c2)c(F)c1 [Compound 93]
Key: ≥ 6.60

Exercise: Could you do the same for C=CC(=O)Nc1cc(F)c(OCc2cccc(F)c2)cn1 [Compound 128] , please?
Key: ≥ 6.60

Exercise: For C=CC(=O)Nc1ccc(OCc2cccc(F)c2)cc1CC1CC1 [Compound 16] then?
Key: < 5.70

====

molecular target: TEAD1 protein (YAP Binding Domain) (Homo sapiens)
pIC50: −log10 of the molar value.
Measurement Label: pIC50

Some solved entries appear below for comparison.
[[record]]
compound = "C=CC(=O)Nc1ccc(OCc2ccnc(C#N)c2)c(F)c1"
measurement_label = "pIC50"
assay_result = "< 5.70"

[[record]]
compound = "C=CC(=O)Nc1ccc(-c2ccc(C(F)(F)F)cc2)c2ncccc12"
measurement_label = "pIC50"
assay_result = "≥ 6.60"

[[record]]
compound = "C=CC(=O)Nc1cc2nc(C3CCC(F)(F)CC3)oc2cc1F [Compound 138]"
measurement_label = "pIC50"
assay_result = "6.30 to 6.60"


Exercise: I'd like to know its pIC50. The compound in question is C=CC(=O)Nc1ccc(OCc2cc(Cl)ccc2Cl)c(F)c1
Key: 5.70 to 6.30

Exercise: // next record C=CC(=O)Nc1cc2nc(CCC(F)(F)F)oc2cc1F
Key: < 5.70

Sourced from patent US20230115350A1
